# target.under.test: Sodium-dependent dopamine transporter (Homo sapiens); also: assay procedure not described here
# Sequence (Q01959 whole entry): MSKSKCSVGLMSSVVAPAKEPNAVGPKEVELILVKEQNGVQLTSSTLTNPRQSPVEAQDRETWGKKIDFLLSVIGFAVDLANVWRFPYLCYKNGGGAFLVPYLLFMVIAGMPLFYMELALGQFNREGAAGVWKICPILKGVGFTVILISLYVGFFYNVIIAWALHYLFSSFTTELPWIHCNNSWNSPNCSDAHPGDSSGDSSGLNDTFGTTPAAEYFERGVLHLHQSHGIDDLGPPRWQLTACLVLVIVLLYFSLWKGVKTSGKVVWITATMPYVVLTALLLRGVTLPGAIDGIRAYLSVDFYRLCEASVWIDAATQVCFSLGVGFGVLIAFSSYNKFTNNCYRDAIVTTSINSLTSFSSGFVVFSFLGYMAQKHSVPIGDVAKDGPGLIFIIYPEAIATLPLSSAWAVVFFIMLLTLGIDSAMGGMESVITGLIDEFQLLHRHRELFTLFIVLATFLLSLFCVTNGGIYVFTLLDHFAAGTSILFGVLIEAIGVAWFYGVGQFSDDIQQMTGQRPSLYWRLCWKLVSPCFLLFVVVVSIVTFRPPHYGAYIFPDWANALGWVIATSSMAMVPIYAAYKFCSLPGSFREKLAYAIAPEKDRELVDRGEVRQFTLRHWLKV
result.type: AC50

Here are 7 compounds. What values of AC50 were reported for them?
1. CC(=O)O[C@H]1CC[C@@]2(C)C(=CC[C@@H]3[C@@H]2CC[C@]2(C)C(c4cccnc4)=CC[C@@H]32)C1 [ABIRATERONE ACETATE]
2. COc1ccc2c3c1O[C@H]1[C@@H](O)C=C[C@H]4[C@@H](C2)N(C)CC[C@@]341
3. COc1cc2nc(N3CCN(C(=O)c4ccco4)CC3)nc(N)c2cc1OC
4. COc1ccc(CCN(C)CCCC(C#N)(c2cc(OC)c(OC)c(OC)c2)C(C)C)cc1OC (stereo not drawn)
5. Cc1c(C(=O)NN2CCCCC2)nn(-c2ccc(Cl)cc2Cl)c1-c1ccc(Cl)cc1
6. NCC(=O)CCC(=O)O
7. C#C[C@]1(O)CC[C@H]2[C@@H]3CCc4cc(OC5CCCC5)ccc4[C@H]3CC[C@@]21C

1: > 30 µM; 2: > 30 µM; 3: > 10 µM; 4: > 30 µM; 5: 23 µM; 6: > 30 µM; 7: > 10 µM

Consider the compound `O=[N+]([O-])c1cn2c(n1)OC[C@@H](OCc1ccc(OC(F)(F)F)cc1)C2` . State its measured AC50.
> 10 µM
